- Experimental parameters: in acetone, 303.15 K
Measured parameter: solubility (mole fraction)
I'd appreciate a reply containing only the number, no unit.

solubility (mole fraction) recorded for this compound, "OC[C@H]1O[C@@H](Oc2ccc(O)cc2)[C@H](O)[C@@H](O)[C@@H]1O" , is 0.000962

* * *

- Experimental parameters: in isopropanol, 293.15 K
Measured parameter: solubility (mole fraction)
Just the number, please.

solubility (mole fraction) measured on "OC[C@H]1O[C@@H](Oc2ccc(O)cc2)[C@H](O)[C@@H](O)[C@@H]1O" = 0.000795

* * *

- Experimental parameters: in isopropanol, 313.15 K
Measured parameter: solubility (mole fraction)
Would you mind answering with just the numeric figure?

The reported solubility (mole fraction) of the molecule "OC[C@H]1O[C@@H](Oc2ccc(O)cc2)[C@H](O)[C@@H](O)[C@@H]1O" was 0.00172

Data provenance: BigSolDB 2.1
